Where do these numbers come from? They come from ChEMBL document CHEMBL1145531.

test system: Streptococcus pneumoniae; test: Antibacterial activity against Streptococcus pneumoniae A9585 after 24 hrs; format: functional; conditions: A9585, 24 h
result type: MIC (µg/mL)

compound="C=C[C@]1(C)C[C@@H](OC(=O)CO)[C@]2(C)[C@H](C)CC[C@]3(CCC(=O)[C@@H]32)[C@@H](C)[C@@H]1O [PLEUROMUTILIN]" quantitative_result=0.5

(P) C=C[C@]1(C)C[C@@H](OC(=O)CSc2ccccc2C(=O)O)[C@@]2(C)C(=O)[C@](CCC(=O)N(CC)CC)(CCC2C)[C@@H](C)[C@@H]1O (some centres undefined)
(Q) C=C[C@]1(C)C[C@@H](OC(=O)CSc2ccncc2)[C@@]2(C)C(=O)[C@](CCC(=O)OCC)(CCC2C)[C@@H](C)[C@@H]1O (some centres undefined)
## Input Name the one with the greater MIC value, either P or Q as given. Response format: the label of the selected entry.
## Output Q
